test: Cytotoxicity; format: cell-based; conditions: pig, LLC-PK11 kidney epithelial cells
REPORTED_ENDPOINT: IC50

1. CC(C)/C=C/c1c(O)cc(/C=C/C2=CC(=O)OC2CC(=O)O)cc1O (stereo not drawn) [Compound 4, SB-1]
> 25 mg/L
2. COc1ccc(/C=C/c2cc(O)cc(O[C@@H]3O[C@H](CO)[C@@H](O)[C@H](O)[C@H]3O)c2)cc1O [Compound 23, rhapontin, reference compound]
> 25 mg/L
3. COc1cc(O)cc(/C=C/c2ccccc2)c1 [Compound 19]
> 25 mg/L
4. COc1cccc(/C=C/c2ccc(O)cc2)c1 [Compound 13]
> 25 mg/L
5. COc1cc(/C=C/c2ccc(O)cc2)cc(OC)c1 [Compound 21, pterostilbene]
> 25 mg/L
6. Oc1cccc(/C=C/c2ccccc2)c1 [Compound 14]
> 25 mg/L
7. COc1cc(/C=C/c2ccccc2)cc(OC)c1 [Compound 18]
> 25 mg/L
8. Oc1ccc(/C=C/c2ccccc2)cc1O [Compound 12]
> 25 mg/L
9. CC(C)(O)C(O)Cc1cc(/C=C/c2cc(O)cc(O)c2)ccc1O (stereo not drawn) [Compound 7, arahypin-2]
> 25 mg/L

* * *

system: adult A. aegypti female mosquitoes; test: Adult mosquito topical toxicity assay; format: in vivo; conditions: topical, 3.12 μg per insect; acetone/DMSO control gave 5.8±1.8%
REPORTED_ENDPOINT: Adult mosquito mortality rate ± SD

1. CC(C)/C=C/c1c(O)cc(/C=C/c2ccc(O)c(O)c2)cc1O
marginally active
2. CC(C)(O)C(O)Cc1c(O)cc(/C=C/c2ccc(O)cc2)cc1O (stereo not drawn)
marginally active
3. CC(C)(O)C(O)Cc1cc(/C=C/c2cc(O)cc(O)c2)ccc1O (stereo not drawn)
marginally active

* * *

assay: Cytotoxicity towards HL-60 cells in the antioxidant assay; assay type: cell-based; details: human, HL-60 promyelocytic leukemia cells
Entries and their IC50
REPORTED_ENDPOINT: IC50 (mg/L)

1) Oc1ccc(/C=C/c2cc(O)cc(O)c2)cc1 [Compound 24, resveratrol, reference compound]
8
2) CC(C)=CCc1c(O)cc(/C=C/c2ccccc2)cc1O [Compound 5, chiricanine A]
19
3) COc1cccc(/C=C/c2ccc(O)cc2)c1 [Compound 13]
4
4) CC(C)/C=C/c1c(O)cc(/C=C/c2ccc(O)c(O)c2)cc1O [Compound 1, arachidin-1]
5.2
5) Oc1ccc(/C=C/c2cccc(O)c2)cc1 [Compound 15, trans-3,4′-dihydroxystilbene]
4
6) Oc1cc(O)cc(/C=C/c2ccccc2)c1 [Compound 11, pinosylvin]
18
7) CC(C)=CCC/C(C)=C/Cc1c(O)cc(/C=C/c2ccc(O)cc2O)cc1O [Compound 22, chlorophorin]
25
8) COc1cccc(CCc2ccc(O)cc2)c1 [Compound 17]
9
9) CC1(C)C=Cc2c(O)cc(/C=C/c3ccc(O)cc3)cc2O1 [Compound 10, arahypin-5]
4.5
10) CC(C)=CCc1c(O)cc(/C=C/c2ccc(O)cc2)cc1O [Compound 2, arachidin-2]
16
11) COc1cc(O)cc(/C=C/c2ccccc2)c1 [Compound 19]
18
12) Oc1cccc(/C=C/c2ccccc2)c1 [Compound 14]
19

* * *

Listed below: IC50 values for each entry.
assay: Cytotoxicity; assay type: cell-based; settings: human, KB oral epidermal carcinoma cells
REPORTED_ENDPOINT: IC50

1) CC(C)/C=C/c1c(O)cc(/C=C/c2ccc(O)c(O)c2)cc1O
4.8 µg/mL
2) COc1cccc(CCc2ccc(O)cc2)c1
> 25 µg/mL
3) CC(C)=CCC/C(C)=C/Cc1c(O)cc(/C=C/c2ccc(O)cc2O)cc1O
> 25 µg/mL
4) Oc1cc(O)cc(/C=C/c2ccccc2)c1
13.8 µg/mL
5) Oc1ccc(/C=C/c2ccccc2)cc1O
> 25 µg/mL
6) COc1cccc(/C=C/c2ccc(O)cc2)c1
> 25 µg/mL
7) Oc1ccc(/C=C/c2cc(O)cc(O)c2)cc1 [Compound 24, resveratrol, reference compound]
> 25 µg/mL
8) CC(C)=CCc1c(O)cc(/C=C/c2ccc(O)cc2)cc1O
22.5 µg/mL
9) COc1cc(/C=C/c2ccccc2)cc(OC)c1
> 25 µg/mL
10) CC(C)/C=C/c1c(O)cc(/C=C/C2=CC(=O)OC2CC(=O)O)cc1O (stereo not shown)
> 25 µg/mL
11) Oc1cccc(/C=C/c2ccccc2)c1
> 25 µg/mL
12) CC(C)(O)C(O)Cc1c(O)cc(/C=C/c2ccc(O)cc2)cc1O (stereo not shown)
> 25 µg/mL
13) Oc1ccc(/C=C/c2cccc(O)c2)cc1 [Compound 15, trans-3,4′-dihydroxystilbene]
> 25 µg/mL
